Catalogue of molecules with associated pKi
Molecular target: P2X7 (UniProt Q99572)
Assay: P2X7 pKi of Table 1
Type: cell-based

Some solved cases for reference:
molecule	result
COc1cc(Br)c(NC(=O)C2=CNC(=O)CC2c2cccc(F)c2)cc1OC (centres unmarked)	6.77
Cc1cc(Cl)c(NC(=O)C2=CNC(=O)C[C@H]2c2ccc(F)cc2)cc1OCCO	7.265

// returns pKi for Cc1cc(C)cc(NC(=O)C2=CNC(=O)CC2c2ccc(F)cc2)c1 (centres unmarked) with P2X7 (UniProt Q99572); value = 6.535

// returns pKi for `COc1cc(C)c(NC(=O)C2=CNC(=O)C[C@H]2c2ccc(F)cc2)cc1OC` with P2X7 (UniProt Q99572); value = 7.993

// returns pKi for `Cc1cc(Cl)c(OCCO)cc1NC(=O)C1=CNC(=O)C[C@H]1c1cccc(F)c1` with P2X7 (UniProt Q99572); value = 7.8375

// returns pKi for Cc1ccc(Cl)c(NC(=O)C2=CNC(=O)CC2c2cccc(F)c2)c1F (centres unmarked) with P2X7 (UniProt Q99572); value = 5.73

// returns pKi for `Cc1cc(C)c(Br)c(NC(=O)C2=CNC(=O)C[C@@H]2c2ccc(F)cc2)c1` with P2X7 (UniProt Q99572); value = 7.57

// returns pKi for `COc1ccc(NC(=O)C2=CNC(=O)C[C@H]2c2ccc(F)cc2)cc1OC` with P2X7 (UniProt Q99572); value = 6.04

// provenance: patent US8288552B2
